test system: HOP-62; assay: NCI tumour cell line growth inhibition, 48 h
Activity calls are given as the source filed them. Cut-off read from the data, not from the text of the source: active = GI50 up to about 1.1 µM and inactive = higher.
measured_attribute: GI50

Here are 7 compounds together with their reported answers.
compound: Nc1ncnc2c1ncc(=O)n2C1CC(O)C(CO)O1 (stereo not drawn)
assay_system: HOP-62
value: > 100 µM (inactive)
--
compound: Cc1ccc(Nc2nnc3n2S(=O)(=O)c2cc(C)c(Cl)cc2S3)cc1
assay_system: HOP-62
value: 6.35 µM (inactive)
--
compound: CNC(=O)N1CN(c2ccccc2)C2(CCN(CCCC3(c4ccc(F)cc4)OCCO3)CC2)C1=O
assay_system: HOP-62
value: > 100 µM (inactive)
--
compound: CCOP(=O)(COCCn1nc(Br)c(=O)[nH]c1=O)OCC
assay_system: HOP-62
value: > 100 µM (inactive)
--
compound: O=C(O)c1ccc(SSc2ccc(C(=O)O)cn2)nc1
assay_system: HOP-62
value: > 100 µM (inactive)
--
compound: COc1ccc(NC(C)c2ccncc2)cc1 (stereo not drawn)
assay_system: HOP-62
value: > 100 µM (inactive)
--
compound: Cc1nc(N2N=C(c3ccc(Cl)cc3)CCC2=O)sc1[N+](=O)[O-]
assay_system: HOP-62
value: > 100 µM (inactive)

Attention now shifts to the item below.
Enquiry: API: value(readout=GI50, system=HOP-62) for record `CN(C)c1ccc(/C=C(\C#N)C(=O)c2ccccc2)cc1Br`
Return: 20.8 µM (inactive)

###

test system: UO-31; experiment: NCI tumour cell line growth inhibition, 48 h
The source made the active and inactive calls. Rule as the data show it: active = GI50 up to about 1.1 µM and inactive = higher.
Hi there, use one of these labels in your reply, thanks! 1 (yes) (active), 0 (no) (inactive)

Use the examples below as a reference point.
compound: NS(=O)(=O)c1ccc(NC(=O)c2cccn3c(=O)c4ccccc4nc23)cc1
group: 0 (no)

compound: COC(=O)[C@H](Cc1ccccc1)NC(=O)c1ccc(CNC(=O)/C=C/c2csc(-c3ccccc3)n2)cc1
group: 0 (no)

compound: O/N=C\c1c2c(cc3c1CCC3)CCC2
group: 0 (no)

compound: CCC(=O)C(CCN1CCC2(CCCc3ccccc32)CC1)(c1ccccc1)c1ccccc1
group: 0 (no)

compound: Nc1ccn(C2OC(CO)C(O)C2(F)F)c(=O)n1 (stereo unspecified)
group: 1 (yes)

Query compound follows.
Enquiry: Fill in: this test's call for `Cn1ncnc1CCc1ccccc1` is ___
Return: 0 (no)

###

Quick reference for GI50 among some compounds
tested on: SNB-19; experiment: NCI tumour cell line growth inhibition, 48 h
The source made the active and inactive calls. Rule as the data show it: active = GI50 up to about 1.1 µM and inactive = higher.

compound: O=C1CC2OCC=C3CN4CCC56c7ccccc7N1C5C2C3CC46O (configuration not stated)
GI50: > 100 µM (inactive)
//
compound: ClC(Cl)(Cl)C1=N[C@H]2[C@H](Br)[C@@H]3O[C@@H](c4ccccc4)[C@H](c4ccccc4)O[C@@H]3[C@H]2O1
GI50: 27.4 µM (inactive)
//
compound: O=C(NC1=NC2C=CC([N+](=O)[O-])=CC2S1)C(=O)Nn1c(S)nc2ccccc2c1=O (configuration not stated)
GI50: 24.3 µM (inactive)
//
compound: CCCCCC/C=C\CCCCCCCCCC1=C(CN2CCN(C)CC2)C(=O)C=C(OC)C1=O
GI50: 11.8 µM (inactive)
//
compound: COCCCNC(=O)C1C(=O)N(CCCOC)C(=O)/C1=N\N (configuration not stated)
GI50: > 100 µM (inactive)

Enquiry: If you can, please state the reported GI50 value of CC(=O)OC[C@H]1[C@@H]2C(CC[C@]13CO3)OC(=O)CC(C)[C@]2(C)CCc1ccoc1 (some centres not stated) .
Return: > 100 µM (inactive)

Enquiry: Give the measured GI50 of `O=C(CCl)N1CCN(c2ccccn2)CC1` .
Return: 57.1 µM (inactive)
